Molecular target: dAsCas12a S542R (Acidaminococcus sp., UniProt U2UMQ6 1-1307, S542R;D908A;E993A;D1235A)
Assay: Spec-seq (native PAGE EMSA with sequencing of bound and unbound); 25 mM Tris-HCl pH 7.4, 150 mM KCl, 5 mM MgCl2, 10% glycerol, 1 mM DTT, 40 ng/uL salmon sperm DNA; 400 nM Cas12a, 480 nM crRNA, 50 nM library, 37 C 1 h; native PAGE at room temperature; high values mean tight binding;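 note: relative affinity from the bound to unbound sequence frequency ratio in Spec-seq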
Details: protein: recombinant

BINDER | binding signal
CGAT (dsDNA) DNA 1: GCTATCTAGTGCTCAGTACGCACTGCGATAGGAAACTTCTGGCAGGACCAGGTCATGAGATCGGAAGAGCACACGTCTGAACTCCAGTCA DNA 2: TGACTGGAGTTCAGACGTGTGCTCTTCCGATCTCATGACCTGGTCCTGCCAGAAGTTTCCTATCGCAGTGCGTACTGAGCACTAGATAGC RNA: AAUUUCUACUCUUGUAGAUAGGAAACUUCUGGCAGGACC | -8.8 lnKA
GACT (dsDNA) DNA 1: GCTATCTAGTGCTCAGTACGCACTGGACTAGGAAACTTCTGGCAGGACCAGGTCATGAGATCGGAAGAGCACACGTCTGAACTCCAGTCA DNA 2: TGACTGGAGTTCAGACGTGTGCTCTTCCGATCTCATGACCTGGTCCTGCCAGAAGTTTCCTAGTCCAGTGCGTACTGAGCACTAGATAGC RNA: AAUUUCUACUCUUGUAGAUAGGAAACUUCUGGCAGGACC | -8.65 lnKA
CGCT (dsDNA) DNA 1: GCTATCTAGTGCTCAGTACGCACTGCGCTAGGAAACTTCTGGCAGGACCAGGTCATGAGATCGGAAGAGCACACGTCTGAACTCCAGTCA DNA 2: TGACTGGAGTTCAGACGTGTGCTCTTCCGATCTCATGACCTGGTCCTGCCAGAAGTTTCCTAGCGCAGTGCGTACTGAGCACTAGATAGC RNA: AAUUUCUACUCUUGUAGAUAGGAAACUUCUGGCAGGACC | -8.52 lnKA
TTGG (dsDNA) DNA 1: GCTATCTAGTGCTCAGTACGCACTGTTGGAGGAAACTTCTGGCAGGACCAGGTCATGAGATCGGAAGAGCACACGTCTGAACTCCAGTCA DNA 2: TGACTGGAGTTCAGACGTGTGCTCTTCCGATCTCATGACCTGGTCCTGCCAGAAGTTTCCTCCAACAGTGCGTACTGAGCACTAGATAGC RNA: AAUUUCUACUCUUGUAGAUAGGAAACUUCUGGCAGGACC | -7.64 lnKA
TATT (dsDNA) DNA 1: GCTATCTAGTGCTCAGTACGCACTGTATTAGGAAACTTCTGGCAGGACCAGGTCATGAGATCGGAAGAGCACACGTCTGAACTCCAGTCA DNA 2: TGACTGGAGTTCAGACGTGTGCTCTTCCGATCTCATGACCTGGTCCTGCCAGAAGTTTCCTAATACAGTGCGTACTGAGCACTAGATAGC RNA: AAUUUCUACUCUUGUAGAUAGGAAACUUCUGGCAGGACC | -7.99 lnKA
CAAA (dsDNA) DNA 1: GCTATCTAGTGCTCAGTACGCACTGCAAAAGGAAACTTCTGGCAGGACCAGGTCATGAGATCGGAAGAGCACACGTCTGAACTCCAGTCA DNA 2: TGACTGGAGTTCAGACGTGTGCTCTTCCGATCTCATGACCTGGTCCTGCCAGAAGTTTCCTTTTGCAGTGCGTACTGAGCACTAGATAGC RNA: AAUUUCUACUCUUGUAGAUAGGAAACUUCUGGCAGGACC | -8.57 lnKA
TAAA (dsDNA) DNA 1: GCTATCTAGTGCTCAGTACGCACTGTAAAAGGAAACTTCTGGCAGGACCAGGTCATGAGATCGGAAGAGCACACGTCTGAACTCCAGTCA DNA 2: TGACTGGAGTTCAGACGTGTGCTCTTCCGATCTCATGACCTGGTCCTGCCAGAAGTTTCCTTTTACAGTGCGTACTGAGCACTAGATAGC RNA: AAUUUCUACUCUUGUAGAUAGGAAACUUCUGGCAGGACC | -8.25 lnKA
TCGA (dsDNA) DNA 1: GCTATCTAGTGCTCAGTACGCACTGTCGAAGGAAACTTCTGGCAGGACCAGGTCATGAGATCGGAAGAGCACACGTCTGAACTCCAGTCA DNA 2: TGACTGGAGTTCAGACGTGTGCTCTTCCGATCTCATGACCTGGTCCTGCCAGAAGTTTCCTTCGACAGTGCGTACTGAGCACTAGATAGC RNA: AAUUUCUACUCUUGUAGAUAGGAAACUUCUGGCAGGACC | -7.61 lnKA
GCCT (dsDNA) DNA 1: GCTATCTAGTGCTCAGTACGCACTGGCCTAGGAAACTTCTGGCAGGACCAGGTCATGAGATCGGAAGAGCACACGTCTGAACTCCAGTCA DNA 2: TGACTGGAGTTCAGACGTGTGCTCTTCCGATCTCATGACCTGGTCCTGCCAGAAGTTTCCTAGGCCAGTGCGTACTGAGCACTAGATAGC RNA: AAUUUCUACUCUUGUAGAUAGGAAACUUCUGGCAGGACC | -7.86 lnKA
AGTG (dsDNA) DNA 1: GCTATCTAGTGCTCAGTACGCACTGAGTGAGGAAACTTCTGGCAGGACCAGGTCATGAGATCGGAAGAGCACACGTCTGAACTCCAGTCA DNA 2: TGACTGGAGTTCAGACGTGTGCTCTTCCGATCTCATGACCTGGTCCTGCCAGAAGTTTCCTCACTCAGTGCGTACTGAGCACTAGATAGC RNA: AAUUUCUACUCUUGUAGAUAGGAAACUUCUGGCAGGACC | -8.41 lnKA
